# tgt: T1, 4H189-AA
# T1 chain: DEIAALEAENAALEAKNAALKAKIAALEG
# protocol.summary: two-hybrid library CCmax;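 note: natural log of median RNA to DNA barcode read ratio; higher means stronger binding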
# assay.setup: mean of both orientations
Please mark YES if the recorded interaction score is equal to or greater than -1, and NO if it falls below.

Task: In plain terms: is recorded interaction score at least -1 for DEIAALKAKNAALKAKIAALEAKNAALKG [4H1000-AA] ?
Output: YES

Task: In plain terms: is recorded interaction score at least -1 for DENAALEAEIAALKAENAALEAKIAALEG [4H1109-AA] ?
Output: YES

Task: In plain terms: is recorded interaction score at least -1 for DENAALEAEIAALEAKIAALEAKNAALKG [4H1064-AA] ?
Output: NO

Task: In plain terms: is recorded interaction score at least -1 for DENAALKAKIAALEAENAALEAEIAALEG [4H1809-AA] ?
Output: YES

Task: In plain terms: is recorded interaction score at least -1 for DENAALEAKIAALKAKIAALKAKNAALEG [4H1391-AA] ?
Output: NO

Task: In plain terms: is recorded interaction score at least -1 for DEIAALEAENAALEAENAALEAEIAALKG [4H146-AA] ?
Output: YES

Task: In plain terms: is recorded interaction score at least -1 for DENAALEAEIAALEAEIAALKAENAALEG [4H1035-AA] ?
Output: NO

Task: In plain terms: is recorded interaction score at least -1 for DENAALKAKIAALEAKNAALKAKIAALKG [4H1854-AA] ?
Output: NO

Task: In plain terms: is recorded interaction score at least -1 for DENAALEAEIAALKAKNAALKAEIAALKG [4H1146-AA] ?
Output: NO
